- System: NCI-H226 lung
- protocol-details: NCI-60 one-dose screen, 48 h
- recorded-conditions: 10 µM unless noted
The panel holds about 83,000 compounds, 20% with a hit somewhere; the sample as a whole holds those more often. Activity calls are given as the source filed them. How the source made its calls: active means growth percent below 10; inactive means the rest.
Thanks in advance; please answer with one of these: active, inactive

IN: Outcome logged for Cc1sc(C(NC(=O)OCCn2c([N+](=O)[O-])cnc2C)C(F)(F)Cl)nc1-c1ccc(OC(F)(F)F)cc1 (centres undefined) in this assay:
OUT: active

IN: For CN(C)c1nc(NCCNS(=O)(=O)c2ccc(C(=O)/C=C/c3ccc(C(F)(F)F)cc3)cc2)nc(Nc2ccc(F)cc2)n1 then?
OUT: active

IN: For N#Cc1c(-c2cccc(O)c2O)cc(-c2ccc3ccccc3c2)[nH]c1=O then?
OUT: inactive

IN: For C=C1CC[C@@H]2[C@]3(C)COC(c4ccco4)O[C@@H]3CC[C@@]2(C)[C@@H]1C/C=C1/C(=O)OCC1OC(C)=O (some centres undefined) then?
OUT: active

----------
- Test system: SF-268 CNS
- protocol-details: NCI-60 one-dose screen, 48 h
- recorded-conditions: 10 µM unless noted
This is part of a sample that, as a whole, favours compounds with a hit. Of some 83,000 tested, about 20% had one in any assay. The source made the active and inactive calls. The calls were made as follows: active = growth percent below 10; inactive = the rest.
Thanks in advance; please answer with one of these: 1.0 (active), 0.0 (inactive)

IN: Outcome logged for CC(C)CSc1nc(NCCc2c[nH]c3ccccc23)c(C#N)c(-c2ccc(Cl)cc2)n1 in this assay:
OUT: 0.0

IN: For COc1cc(-c2nc3ccc(C)cc3[nH]2)ccc1OCc1nnc(-c2ccc(Br)cc2)o1 then?
OUT: 0.0

IN: For CN(C)c1ccnc(CNCCSC2(c3ccc(C(F)(F)F)cc3)c3ccccc3C=Cc3ccccc32)c1 then?
OUT: 1.0

IN: For C=C1CC[C@@H]2[C@]3(C)COC(c4ccccc4)O[C@@H]3CC[C@@]2(C)[C@@H]1C/C=C1/C(=O)OCC1OC(C)=O (stereo not given in full) then?
OUT: 0.0

IN: For CN(C)c1nc(NCCNS(=O)(=O)c2ccc(C3=Nc4c(N)nc(N)nc4NC(c4ccc(F)cc4)C3)cc2)nc(Nc2ccc(F)cc2)n1 (stereo not given) then?
OUT: 0.0

IN: For COc1c(F)ccc(C(=O)Nc2ccc3nc(NC(=O)C4CCCN(S(=O)(=O)c5ccc(C(F)(F)F)cc5)C4)sc3c2)c1F (stereo not given) then?
OUT: 0.0

IN: For O=C1Nc2cc(Cl)ccc2/C1=C/c1cccc(OCc2ccccn2)c1 then?
OUT: 0.0

IN: For O=C(Cn1c(/C=C/c2cccc([N+](=O)[O-])c2)nc2ccccc2c1=O)Nc1ccccc1 then?
OUT: 0.0

IN: For CC(=O)Nc1ccc(-n2cnc3ccc(-c4ccc(O)cc4)cc32)cc1 then?
OUT: 0.0

IN: For COc1ccc(C(=O)/C=C/c2ccc(OCc3ccccc3)c(OC)c2)cc1OC then?
OUT: 0.0

----------
- Tested on: NCI-H226 lung
- protocol-details: NCI-60 one-dose screen, 48 h (100 = growth as untreated, 0 = no growth, -100 = all killed)
- recorded-conditions: 10 µM unless noted
About 83,000 compounds went through this panel and 20% of them were active in at least one assay; those are over-represented in the sample as a whole.
# thresholds on growth define classes: 0 = under 40%, 1 = from 40% up to 80%, 2 = 80% and over

IN: For this compound, which bin applies? COc1ccc(-c2cc(C(=O)NCc3ccccc3)nn2-c2ccc(S(C)(=O)=O)cc2)cc1OC
OUT: 2

IN: For O=c1cc(-c2ccccc2)oc2cc(OCCCC[P+](c3ccccc3)(c3ccccc3)c3ccccc3)cc(O)c12 then?
OUT: 0

IN: For O=C(COc1ccc(NC(=O)Nc2ccc(Cl)cc2)cc1)N/N=C/c1ccccc1 then?
OUT: 0

IN: For CCN(CC)c1ccc(/C=N/Nc2nc(-c3ccc(C)cc3)cs2)c(O)c1 then?
OUT: 1

IN: For CC(=O)Oc1ccc(/C=C/C(=O)N[C@@H](Cc2ccccc2)C(O)C(=O)NCc2ccccc2)cc1OC(C)=O (stereo partly specified) then?
OUT: 2

IN: For COc1ccc2cc([C@H](C)C(=O)N/N=C/c3ccc(Br)cc3)ccc2c1 then?
OUT: 2

IN: For Cn1cc(-c2cc(N)n3nc(-c4cn(C)c5ccc(Cl)cc45)cc3n2)c2ccccc21 then?
OUT: 2

IN: For COc1ccc(C(=O)/C=C/c2ccc(OCc3ccc(F)cc3)c(OC)c2)cc1OC then?
OUT: 1

IN: For COc1ccc(C2CC(c3ccc(S(=O)(=O)NCCNc4nc(Nc5ccc(F)cc5)nc(N(C)C)n4)cc3)=Nc3c(N)nc(N)nc3N2)cc1 (stereo unspecified) then?
OUT: 2

IN: For COc1cc(-c2ccc(/C=N/NC(=O)c3[nH]c4ccc(Br)cc4c3-c3ccccc3)o2)cc(OC)c1OC then?
OUT: 1

IN: For COc1ccccc1C(=O)NN1C(=O)/C(=C/C2=Cc3ccccc3OC2)SC1=S then?
OUT: 2

IN: For Nc1nnc(-c2c[nH]c3ncc(Br)cc23)c(-c2c[nH]c3ccc(F)cc23)n1 then?
OUT: 1

IN: For O=C(/C=C/c1cccc(OCc2ccccc2)c1)c1nc2ccccc2[nH]1 then?
OUT: 0

IN: For CCCS(=O)(=O)N1CCCC(C(=O)Nc2nc3ccc(NC(=O)c4ccc(F)c(OC)c4F)cc3s2)C1 (stereo unspecified) then?
OUT: 0

IN: For COc1cc(NC(=O)c2cccc(C3CCc4c(cc(OC)c(OC)c4OC)O3)c2)cc(OC)c1OC (stereo unspecified) then?
OUT: 0
